# target.or.test.system: Prostaglandin G/H synthase 1 (Ovis aries)
# Sequence (P05979 whole entry): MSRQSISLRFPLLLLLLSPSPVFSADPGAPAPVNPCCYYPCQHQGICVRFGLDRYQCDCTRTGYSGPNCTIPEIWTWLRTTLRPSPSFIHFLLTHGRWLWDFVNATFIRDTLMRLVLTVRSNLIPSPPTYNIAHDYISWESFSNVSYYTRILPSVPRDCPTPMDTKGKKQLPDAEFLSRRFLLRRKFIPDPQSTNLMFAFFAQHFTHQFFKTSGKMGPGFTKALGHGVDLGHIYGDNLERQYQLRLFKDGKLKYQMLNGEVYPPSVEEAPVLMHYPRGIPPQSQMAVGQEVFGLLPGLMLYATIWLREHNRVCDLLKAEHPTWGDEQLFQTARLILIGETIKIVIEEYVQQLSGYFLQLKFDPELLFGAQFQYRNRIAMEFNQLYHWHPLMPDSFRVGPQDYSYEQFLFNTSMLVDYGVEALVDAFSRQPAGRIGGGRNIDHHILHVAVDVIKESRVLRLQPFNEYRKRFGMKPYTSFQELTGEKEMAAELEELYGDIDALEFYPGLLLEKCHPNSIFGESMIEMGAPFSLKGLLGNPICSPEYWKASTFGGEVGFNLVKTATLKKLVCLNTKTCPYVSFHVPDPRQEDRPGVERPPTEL
Kindly find below IC50 information for Prostaglandin G/H synthase 1 (Ovis aries) taken from the literature.
measurement.label: IC50 (µM)

Below: 3 compounds and their reported IC50.
COc1ccc(-c2noc(CC(=O)NCCCCCCNC(=O)Cc3onc(-c4ccc(OC)cc4)c3-c3ccc(OC)cc3)c2-c2ccc(OC)cc2)cc1 ... 9
C/C(=N\Nc1ccc(S(C)(=O)=O)cc1)c1sc(-c2ccccc2)nc1C ... 5.4
CCOC(=O)Cn1nncc1COc1ccc2ccccc2c1-c1c(OCc2cnnn2CC(=O)OCC)ccc2ccccc12 ... 70

(A) CC(=O)Oc1ccccc1SCCCCCBr
(B) CCN(CC)/[N+]([O-])=N\OCOC(=O)/C(=C/c1ccc(S(C)(=O)=O)cc1)c1cccc(Br)c1
-- ask Hi there! Just curious which has the higher IC50 between A and B . Reply with the label of the item you choose.
-- reply A

====

Kindly find below IC50 information for Prostaglandin G/H synthase 1 (Ovis aries) taken from the literature.

COc1ccc2[nH]cc(/C=C/C(=O)c3ccc(C#N)cc3)c2c1 ... > 33.1 µM

-- ask Recall the reported IC50 of "CC[C@H](C)NC(=O)Cc1c(C)n(C(=O)c2ccc(Cl)cc2)c2ccc(OC)cc12" on Prostaglandin G/H synthase 1 (Ovis aries) and write it down.
-- reply 4.7 µM

-- ask Recall the reported IC50 of "COc1ccc2c(c1)c(CC(=O)NN1CCC[C@H]1CO)c(C)n2C(=O)c1ccc(Cl)cc1" on Prostaglandin G/H synthase 1 (Ovis aries) and write it down.
-- reply > 80 µM

-- ask Recall the reported IC50 of "CS(=O)(=O)Nc1ccc([N+](=O)[O-])cc1Oc1ccc(I)cc1" on Prostaglandin G/H synthase 1 (Ovis aries) and write it down.
-- reply > 100 µM

====

Kindly find below pIC50 information for Prostaglandin G/H synthase 1 (Ovis aries) taken from the literature.
# target.or.test.system: Prostaglandin G/H synthase 1 (Ovis aries)
# Sequence (P05979 whole entry): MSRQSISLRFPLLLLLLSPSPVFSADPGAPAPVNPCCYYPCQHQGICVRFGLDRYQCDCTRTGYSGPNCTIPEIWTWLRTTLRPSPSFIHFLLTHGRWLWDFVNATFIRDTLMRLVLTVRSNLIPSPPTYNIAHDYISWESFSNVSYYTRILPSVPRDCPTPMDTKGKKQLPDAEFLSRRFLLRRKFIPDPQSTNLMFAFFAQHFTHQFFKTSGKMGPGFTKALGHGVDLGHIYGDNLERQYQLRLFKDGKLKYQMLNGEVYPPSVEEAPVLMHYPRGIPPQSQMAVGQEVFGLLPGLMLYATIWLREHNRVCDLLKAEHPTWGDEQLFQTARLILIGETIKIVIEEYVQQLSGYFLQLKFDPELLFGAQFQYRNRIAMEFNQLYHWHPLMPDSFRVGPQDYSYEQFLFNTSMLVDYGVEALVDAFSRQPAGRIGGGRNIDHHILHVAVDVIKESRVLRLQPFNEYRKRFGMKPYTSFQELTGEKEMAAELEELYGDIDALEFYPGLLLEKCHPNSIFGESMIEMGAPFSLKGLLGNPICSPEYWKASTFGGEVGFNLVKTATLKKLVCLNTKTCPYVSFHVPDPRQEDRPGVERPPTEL
pIC50: −log10 of the molar value.
measurement.label: pIC50

COc1ccc(NC(=O)c2c[nH]c(=O)c(Cl)c2)cc1 ... 4.36

(P) CC(=O)C(C)(C)C1CC(=O)N(c2ccccc2)C1=O (stereo not given)
(Q) COC(=O)CNC(=O)[C@H](Cc1c[nH]c2ccccc12)NC(=O)C(=O)c1cn(S(=O)(=O)c2ccc(C)cc2)c2ccccc12
(R) O=C1CCCCCC1C1CC(=O)N(c2ccccc2)C1=O (stereo not given)
-- ask Ranking field: pIC50; order: falling. # list labels per requested ordering
-- reply Q, P, R
(Q: 5.00, P: 4.41, R: 4.18)
